# Tested on: TK-10
# measurement notes: Cytotoxicity against human TK10 cells
# Assay type: functional
# assay context: read-out: pTGI (converted)
Where TGI equals or exceeds 40 µM, the correct label is 1; where it does not, the label is -1.

Q. Is TGI for CC1(C)[C@H](O)CC[C@@]2(C)Oc3c(O)cc(/C=C/c4cc(O)c5cc[nH]c5c4)cc3C[C@H]12 at or above 40 µM?
A. -1

Q. Is TGI for COc1cc(/C=C/c2cc(O)c3cc[nH]c3c2)cc2c1O[C@]1(C)CC[C@@H](O)C(C)(C)[C@H]1C2 at or above 40 µM?
A. 1

Q. Is TGI for COc1cc(/C=C/c2cc(OC)c3cc[nH]c3c2)cc2c1O[C@]1(C)CC[C@@H](O)C(C)(C)[C@H]1C2 at or above 40 µM?
A. -1

Q. Is TGI for COc1cc(/C=C/c2cc(O)c3ccn(C)c3c2)cc2c1O[C@]1(C)CC[C@@H](O)C(C)(C)[C@H]1C2 at or above 40 µM?
A. 1
